Listed here are sequences together with their documented protein stability index.
Tested on: Saccharomyces cerevisiae;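 further: PSI is a weighted mean of sequencing reads over stability bins, variants kept only with over 10 reads, mCherry proximal and sfGFP distal, peptide attached via GGGS linker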
Experiment: protein stability index of tFT-peptide fusion (C-terminal peptide) (PSI (0-1 scale)); higher = more stable (slower turnover)
Details: genetic background: wild type; temperature: 30 C
Format: numeric value only, no unit, no commentary.

ECGLRAAKPVWI : 0.702
HATPPPLPSPPL : 0.72
RAHWGEFGYSLF : 0.716
EITKVKDNEKIN : 0.686

Look up protein stability index of TQSNRKPLECPS and report it.
0.679

Look up protein stability index of RLGLSIASAPCL and report it.
0.693

Look up protein stability index of IMDHKSNSDKWI and report it.
0.719

Look up protein stability index of GWVGGCGCGRGI and report it.
0.694

Look up protein stability index of TWGRPGGDHPRE and report it.
0.708

Look up protein stability index of RNSDPRLGGNTF and report it.
0.687
